B1: LRRC45 (parent)
chain: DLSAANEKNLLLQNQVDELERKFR

# Variants of: B1
# Test: protein stability index of a GFP-peptide fusion (GPS, HEK-293T) (PSI 1-6); higher = more stable;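 further: lentivirally expressed fusions sorted by FACS into six bins by GFP to DsRed ratio, PSI derived from sequencing read proportions per bin multiplied by bin number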
# Conditions: c terminus: a fixed tail appended
# key: entry, value: protein stability index
Observation type: protein stability index

> print(dat)
   mutation.key  numeric.result
1          L12R            3.98
2           S3M            4.11
3          R21Q            4.09
4          N14A            3.95
5           N6M            3.97
6          K22Q            4.06
